Target: human 5-HT4b receptor (Homo sapiens)
Construct: expressed in transfected cells; host or cells: CHO cells (G418 selection)
Sequence (Q13639 whole entry): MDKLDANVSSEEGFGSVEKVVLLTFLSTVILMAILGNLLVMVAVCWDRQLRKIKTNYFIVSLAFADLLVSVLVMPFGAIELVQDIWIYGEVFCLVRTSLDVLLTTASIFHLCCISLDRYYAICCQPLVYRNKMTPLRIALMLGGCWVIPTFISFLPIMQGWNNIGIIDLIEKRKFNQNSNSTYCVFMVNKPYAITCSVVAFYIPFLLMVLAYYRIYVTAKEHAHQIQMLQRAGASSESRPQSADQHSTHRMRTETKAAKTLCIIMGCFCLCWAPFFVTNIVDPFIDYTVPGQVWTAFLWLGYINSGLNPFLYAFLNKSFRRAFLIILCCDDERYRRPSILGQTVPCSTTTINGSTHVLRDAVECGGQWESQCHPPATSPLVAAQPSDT
Assay: Test Example 2: Serotonin 4 (5-HT4) receptor agonist activity assay, cAMP HTRF in CHO cells (Table 97)
Assay type: cell-based
Details: 0.25 h; intrinsic activity, maximal activity of 5-HT defined as 100%; cAMP in CHO cells expressing human 5-HT4b receptor; mean value; read-out: IA (%)
Where a name gives a salt, the structure may show the parent alone.
Label fulfilled when Emax is strictly below 60%; at or above that, label not fulfilled.

Q: Please indicate whether the reported Emax of CCC(C)N1CCC(c2nc(-n3nc(C4CC4)c4ccccc43)no2)CC1 (stereo not shown) [Example 102, trifluoroacetate] is strictly below 60%.
A: fulfilled

Q: Please indicate whether the reported Emax of CC(C)c1nn(-c2noc(C3CCN(C4CCN(C(=O)CO)CC4)CC3)n2)c2c(F)cccc12 [Example 242] is strictly below 60%.
A: not fulfilled

Q: Please indicate whether the reported Emax of CCc1nn(-c2noc(C3CCN(CCC4CCOCC4)CC3)n2)c2cc(F)ccc12 [Example 137] is strictly below 60%.
A: not fulfilled

Q: Please indicate whether the reported Emax of CC(C)CN1CCC(c2nc(-n3nc(C4CCC4)c4ccccc43)no2)CC1 [Example 115, trifluoroacetate] is strictly below 60%.
A: fulfilled

Q: Please indicate whether the reported Emax of CCc1nn(-c2noc(C3CCN(CCCOC)CC3)n2)c2ccccc12 [Example 87, trifluoroacetate] is strictly below 60%.
A: not fulfilled

Q: Please indicate whether the reported Emax of CCc1nn(-c2noc(C3CCN(C4CCN(C(C)=O)CC4)CC3)n2)c2c(F)cccc12 [Example 229, hydrochloride] is strictly below 60%.
A: fulfilled

Q: Please indicate whether the reported Emax of CC(C)CN1CCC(c2nc(-n3nc(C(C)C)c4ccccc43)no2)CC1 [Example 98, trifluoroacetate] is strictly below 60%.
A: not fulfilled

Q: Please indicate whether the reported Emax of COCCCN1CCC(c2nc(-n3nc(C4CC4)c4ccccc43)no2)CC1 [Example 88, trifluoroacetate] is strictly below 60%.
A: fulfilled

Q: Please indicate whether the reported Emax of CCc1nn(-c2noc(C3CCN(CC4CCCO4)CC3)n2)c2ccccc12 (stereo not shown) [Example 132] is strictly below 60%.
A: fulfilled

Q: Please indicate whether the reported Emax of CCc1nn(-c2noc(C3CCN(C4CCN(C(C)=O)CC4)CC3)n2)c2cc(F)ccc12 [Example 228, hydrochloride] is strictly below 60%.
A: not fulfilled

Q: Please indicate whether the reported Emax of CCc1nn(-c2noc(C3CCN(CC4CCN(C(=O)OC)CC4)CC3)n2)c2cc(F)ccc12 [Example 171] is strictly below 60%.
A: fulfilled

Q: Please indicate whether the reported Emax of CCc1nn(-c2noc(C3CCN(CCCO)CC3)n2)c2ccccc12 [Example 261] is strictly below 60%.
A: not fulfilled

Q: Please indicate whether the reported Emax of CCc1nn(-c2noc(C3CCN(C4CCOC4)CC3)n2)c2cc(F)ccc12 (stereo not shown) [Example 138] is strictly below 60%.
A: not fulfilled

Q: Please indicate whether the reported Emax of CCc1nn(-c2noc(C3CCN(C(C)C)CC3)n2)c2cc(F)ccc12 [Example 143] is strictly below 60%.
A: not fulfilled

Q: Please indicate whether the reported Emax of CCc1nn(-c2noc(C3CCN(CC4CC4)CC3)n2)c2ccccc12 [Example 112, trifluoroacetate] is strictly below 60%.
A: not fulfilled
